Data provenance is PubChem BioAssay.

# target-of-assay: Receptor tyrosine-protein kinase erbB-2 (Homo sapiens) (UniProt P04626)
# Sequence (P04626 whole entry, looked up): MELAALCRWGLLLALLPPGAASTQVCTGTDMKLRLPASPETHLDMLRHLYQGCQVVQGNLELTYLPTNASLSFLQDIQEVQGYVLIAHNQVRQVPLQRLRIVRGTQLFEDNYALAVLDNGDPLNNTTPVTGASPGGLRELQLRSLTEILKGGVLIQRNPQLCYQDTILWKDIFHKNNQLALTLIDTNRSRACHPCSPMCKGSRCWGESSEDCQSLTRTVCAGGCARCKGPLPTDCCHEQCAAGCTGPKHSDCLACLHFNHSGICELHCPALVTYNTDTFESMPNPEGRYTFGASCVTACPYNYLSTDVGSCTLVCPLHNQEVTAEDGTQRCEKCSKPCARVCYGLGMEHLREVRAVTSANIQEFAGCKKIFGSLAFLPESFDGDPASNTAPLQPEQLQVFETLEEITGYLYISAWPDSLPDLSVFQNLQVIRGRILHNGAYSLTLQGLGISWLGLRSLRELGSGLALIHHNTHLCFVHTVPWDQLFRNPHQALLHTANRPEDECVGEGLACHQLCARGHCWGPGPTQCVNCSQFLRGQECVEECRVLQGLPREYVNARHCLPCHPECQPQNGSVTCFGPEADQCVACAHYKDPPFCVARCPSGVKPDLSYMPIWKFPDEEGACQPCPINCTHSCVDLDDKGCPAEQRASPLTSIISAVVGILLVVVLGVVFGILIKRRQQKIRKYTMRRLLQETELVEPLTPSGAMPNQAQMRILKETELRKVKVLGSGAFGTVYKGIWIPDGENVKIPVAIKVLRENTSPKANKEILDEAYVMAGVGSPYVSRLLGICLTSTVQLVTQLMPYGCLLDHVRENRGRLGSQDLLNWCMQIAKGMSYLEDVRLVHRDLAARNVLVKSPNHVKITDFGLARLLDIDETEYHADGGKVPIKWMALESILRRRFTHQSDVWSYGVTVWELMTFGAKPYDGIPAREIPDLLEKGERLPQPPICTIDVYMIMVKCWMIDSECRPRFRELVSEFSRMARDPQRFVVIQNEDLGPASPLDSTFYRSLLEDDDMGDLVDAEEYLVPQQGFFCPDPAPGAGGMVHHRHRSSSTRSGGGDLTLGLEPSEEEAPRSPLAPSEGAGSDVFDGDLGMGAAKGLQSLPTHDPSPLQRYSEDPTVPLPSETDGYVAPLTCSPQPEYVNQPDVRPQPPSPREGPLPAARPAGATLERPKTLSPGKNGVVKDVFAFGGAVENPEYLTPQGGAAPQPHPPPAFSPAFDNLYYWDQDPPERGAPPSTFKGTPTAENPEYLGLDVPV
# test-protocol: reducers of endogenous Her2 protein level, primary screen, SKBR3 breast tumor cells, AlphaScreen, ATP viability (AID 461);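 note: lower value means less Her2 protein in the cells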
# test-parameters: 18-24 h, at 10 µM, hits give low values
The following molecules are shown together with reported Her2 level values.
Field: numeric (%). Do not append units.

# example entries with known answers
>>> measured_number("CC1=C/C(=C/N(C)c2ccccc2)C(=O)S1")
94
>>> measured_number("Cc1cc2c(=O)n(CC(=O)N3CCN(c4ccccc4)CC3)cnc2s1")
78
>>> measured_number("O=C(C1CCC1)N1CCc2cc(S(=O)(=O)Nc3ccc4c(c3)OCO4)ccc21")
76

Now look at this entry.
Q: Param item = CC1CCc2cc(F)cc3c(O)c(C(=O)NCC4CCCO4)c(=O)n1c23 (centres undefined) ; retrieve measured Her2 level.
Result: 94
